Give measured remaining at 1 h for each item. Keep answers brief.
- procedure-details: Metabolic stability in CD1 mouse liver microsomes incubated for 10 mins prior to NADPH addition measured after 60 mins by LC/MS/MS analysis
- Assay type: ADME
- conditions: read-out: Stability
Numeric answer plus unit only.

// solved cases for remaining at 1 h follow
{"line-notation": "Cn1cc(-c2ccc(Oc3ncccc3-c3ccncc3)cc2)c2ncc(Cl)cc21", "remaining at 1 h": "67.1%"}
{"line-notation": "Cn1cc(-c2cccc(Oc3nccc(-c4cn[nH]c4)n3)c2)c2nc3ccccc3cc21", "remaining at 1 h": "60.4%"}
{"line-notation": "Cc1cnc2c(-c3ccc(Oc4ncccc4-c4ccncc4)cc3)cn(C)c2c1", "remaining at 1 h": "48.1%"}
{"line-notation": "Cn1cc(-c2ccc(Oc3nccnc3-c3ccncc3)cc2)c2ncccc21", "remaining at 1 h": "46.2%"}

Moving on to another molecule below.
Q. Give the reported remaining at 1 h for this molecule. "Cn1cc(-c2ccc(Oc3nccnc3-c3cncnc3)cc2)c2nc3ccccc3cc21"
A. 76.1%

====

- procedure-details: Plasma clearance in iv dosed Swiss albino mouse
- Assay type: ADME, organism-based
result-type: clearance (L/h/kg)
Give bare numbers, in L/h/kg.

Q. Give the reported clearance for this compound. "Cn1cc(-c2ccc(Oc3nccnc3-c3ccncc3)cc2)c2ncccc21"
A. 4.1

====

- procedure-details: Cmax in Swiss albino mouse at 10 mg/kg, po
- Type: ADME, organism-based
- Set-up: dose 10 mg/kg, route oral
- conditions: in vivo
result-type: Cmax (ng/mL)
Give bare numbers, in ng/mL.

Q. Give the reported Cmax for this molecule. "Cn1cc(-c2ccc(Oc3nccnc3-c3ccncc3)cc2)c2ncccc21"
A. 5490

====

- target-system: 3',5'-cyclic-AMP phosphodiesterase 4D (Homo sapiens)
- procedure-details: Inhibition of human recombinant PDE4D using [3H]-cAMP as substrate at 1 uM after 30 mins by two-step radiometric assay
Give measured inhibition for each item. Keep answers brief.
Answers are plain numbers, in %.

{"line-notation": "Cn1cc(-c2ccc(Oc3nccnc3-c3ccncc3)cc2)c2nc3ccccc3cc21", "units": "%", "inhibition": 0}
{"line-notation": "Cn1cc(-c2cccc(Oc3nccc(-c4cncnc4)n3)c2)c2nc3ccccc3cc21", "units": "%", "inhibition": 4.2}
{"line-notation": "Cn1cc(-c2ccc(Oc3nccnc3-c3cncnc3)cc2)c2nc3ccccc3cc21", "units": "%", "inhibition": 1.3}

Give inhibition for each of the items listed below.
1. Cn1cc(-c2cccc(Oc3nccc(N4CCOCC4)n3)c2)c2nc3ccccc3cc21
2. Cn1cc(-c2ccc(Oc3nccnc3-c3ccncc3)cc2)c2ncc(Cl)cc21

A.
1: 5.6; 2: 4.1

====

- procedure-details: Tmax in Swiss albino mouse at 10 mg/kg, po
- Assay type: ADME, organism-based
- Design: dose 10 mg/kg, route oral
- conditions: in vivo
result-type: Tmax

Q. Give the reported Tmax for this compound. "Cn1cc(-c2ccc(Oc3nccnc3-c3ccncc3)cc2)c2ncccc21"
A. 30 min

====

- procedure-details: Cmax in Sprague-Dawley rat at 10 mg/kg, po
- Assay type: ADME, organism-based
- Set-up: dose 10 mg/kg, route oral
- conditions: in vivo
result-type: Cmax
Numeric answer plus unit only.

Q. Give the reported Cmax for this compound. "Cn1cc(-c2ccc(Oc3nccnc3-c3ccncc3)cc2)c2ncccc21"
A. 27600 ng/mL

====

Give measured inhibition for each item. Keep answers brief.
- target-system: cGMP-inhibited 3',5'-cyclic phosphodiesterase 3A (Homo sapiens)
- procedure-details: Inhibition of human recombinant PDE3A using cAMP as substrate at 1 uM after 30 mins by HTRF method
Give bare numbers, in %.

// solved cases for inhibition follow
{"line-notation": "Cn1cc(-c2ccc(Oc3nccnc3-c3cncnc3)cc2)c2nc3ccccc3cc21", "target-system": "cGMP-inhibited 3',5'-cyclic phosphodiesterase 3A (Homo sapiens)", "result-type": "inhibition", "units": "%", "test-result": 0.3}
{"line-notation": "Cn1cc(-c2ccc(Oc3ncccc3-c3ccncc3)cc2)c2ncccc21", "target-system": "cGMP-inhibited 3',5'-cyclic phosphodiesterase 3A (Homo sapiens)", "result-type": "inhibition", "units": "%", "test-result": 0.1}
{"line-notation": "Cn1cc(-c2ccc(Oc3nccnc3-c3ccncc3)cc2)c2ncccc21", "target-system": "cGMP-inhibited 3',5'-cyclic phosphodiesterase 3A (Homo sapiens)", "result-type": "inhibition", "units": "%", "test-result": 0}
{"line-notation": "Cc1cnc2c(-c3ccc(Oc4ncccc4-c4ccncc4)cc3)cn(C)c2c1", "target-system": "cGMP-inhibited 3',5'-cyclic phosphodiesterase 3A (Homo sapiens)", "result-type": "inhibition", "units": "%", "test-result": 0.9}
{"line-notation": "Cn1cc(-c2cccc(Oc3nccc(-c4cncnc4)n3)c2)c2nc3ccccc3cc21", "target-system": "cGMP-inhibited 3',5'-cyclic phosphodiesterase 3A (Homo sapiens)", "result-type": "inhibition", "units": "%", "test-result": 1.1}
{"line-notation": "Cn1cc(-c2ccc(Oc3nccnc3-c3ccncc3)cc2)c2ncc(Cl)cc21", "target-system": "cGMP-inhibited 3',5'-cyclic phosphodiesterase 3A (Homo sapiens)", "result-type": "inhibition", "units": "%", "test-result": 0.7}
{"line-notation": "Cn1cc(-c2ccc(Oc3nccnc3-c3ccncc3)cc2)c2nc3ccccc3cc21", "target-system": "cGMP-inhibited 3',5'-cyclic phosphodiesterase 3A (Homo sapiens)", "result-type": "inhibition", "units": "%", "test-result": 0.8}
{"line-notation": "Cn1cc(-c2ccc(Oc3ncccc3-c3ccncc3)cc2)c2ncc(Cl)cc21", "target-system": "cGMP-inhibited 3',5'-cyclic phosphodiesterase 3A (Homo sapiens)", "result-type": "inhibition", "units": "%", "test-result": 0}
{"line-notation": "Cn1cc(-c2cccc(Oc3nccc(N4CCOCC4)n3)c2)c2nc3ccccc3cc21", "target-system": "cGMP-inhibited 3',5'-cyclic phosphodiesterase 3A (Homo sapiens)", "result-type": "inhibition", "units": "%", "test-result": 0.3}

Moving on to another molecule below.
Q. Give reported inhibition for "Cn1cc(-c2cccc(Oc3nccc(-c4cn[nH]c4)n3)c2)c2nc3ccccc3cc21" (cGMP-inhibited 3',5'-cyclic phosphodiesterase 3A (Homo sapiens))
A. 4.5

====

- target-system: UniProtKB Q08499
- Sequence (Q08499 whole entry): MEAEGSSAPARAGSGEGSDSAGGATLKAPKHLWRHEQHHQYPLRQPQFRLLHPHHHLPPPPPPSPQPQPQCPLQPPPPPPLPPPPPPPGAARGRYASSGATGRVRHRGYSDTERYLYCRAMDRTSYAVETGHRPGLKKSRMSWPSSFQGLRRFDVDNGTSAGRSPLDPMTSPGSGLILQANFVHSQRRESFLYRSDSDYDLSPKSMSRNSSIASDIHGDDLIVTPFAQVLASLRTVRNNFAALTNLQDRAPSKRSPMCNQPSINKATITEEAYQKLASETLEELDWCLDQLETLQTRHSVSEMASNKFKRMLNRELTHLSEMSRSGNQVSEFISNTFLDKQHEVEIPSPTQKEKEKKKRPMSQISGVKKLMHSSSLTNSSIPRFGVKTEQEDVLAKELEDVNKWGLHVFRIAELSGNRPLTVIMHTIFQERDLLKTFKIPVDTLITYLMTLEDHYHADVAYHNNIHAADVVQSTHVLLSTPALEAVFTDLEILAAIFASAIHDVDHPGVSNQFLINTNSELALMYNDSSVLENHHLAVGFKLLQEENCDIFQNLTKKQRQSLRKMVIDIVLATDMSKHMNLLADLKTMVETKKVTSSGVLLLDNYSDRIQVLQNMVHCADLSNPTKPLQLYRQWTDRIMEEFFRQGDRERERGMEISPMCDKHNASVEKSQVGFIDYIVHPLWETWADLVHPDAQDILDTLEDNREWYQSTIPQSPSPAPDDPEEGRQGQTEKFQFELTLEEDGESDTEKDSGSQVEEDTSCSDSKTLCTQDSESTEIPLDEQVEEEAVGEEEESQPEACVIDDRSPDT
- procedure-details: Inhibition of human recombinant PDE4D using [3H]-cAMP as substrate at 10 uM after 30 mins by two-step radiometric assay
result-type: inhibition (%)
Answers are plain numbers, in %.

Give inhibition for each of the items listed below.
1. Cn1cc(-c2ccc(Oc3nccnc3-c3ccncc3)cc2)c2ncccc21
2. Cn1cc(-c2ccc(Oc3nccnc3-c3ccncc3)cc2)c2nc3ccccc3cc21
3. Cn1cc(-c2ccc(Oc3nccnc3-c3ccncc3)cc2)c2ncc(Cl)cc21
4. Cn1cc(-c2cccc(Oc3nccc(-c4cn[nH]c4)n3)c2)c2nc3ccccc3cc21
5. Cn1cc(-c2cccc(Oc3nccc(-c4cncnc4)n3)c2)c2nc3ccccc3cc21
6. Cn1cc(-c2ccc(Oc3ncccc3-c3ccncc3)cc2)c2ncc(Cl)cc21

A.
1: 33.8; 2: 7.6; 3: 25.4; 4: 34.7; 5: 57; 6: 6.9

====

- target-system: High affinity 3',5'-cyclic-AMP phosphodiesterase 7A (Homo sapiens) (UniProt Q13946)
- Sequence (Q13946 whole entry): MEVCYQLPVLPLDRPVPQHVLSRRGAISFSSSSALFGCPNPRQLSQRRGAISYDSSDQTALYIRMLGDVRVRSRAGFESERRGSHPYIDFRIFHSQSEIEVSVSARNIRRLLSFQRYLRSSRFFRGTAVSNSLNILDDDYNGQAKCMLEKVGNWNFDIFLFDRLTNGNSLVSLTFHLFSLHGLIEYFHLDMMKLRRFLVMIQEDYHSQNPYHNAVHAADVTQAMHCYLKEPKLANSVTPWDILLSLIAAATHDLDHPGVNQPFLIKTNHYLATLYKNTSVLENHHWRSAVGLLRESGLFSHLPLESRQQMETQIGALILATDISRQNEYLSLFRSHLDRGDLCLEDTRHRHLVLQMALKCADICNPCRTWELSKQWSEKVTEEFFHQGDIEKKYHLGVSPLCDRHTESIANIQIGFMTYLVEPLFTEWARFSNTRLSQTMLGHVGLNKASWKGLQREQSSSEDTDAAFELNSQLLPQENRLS
- procedure-details: Inhibition of human recombinant PDE7A using [3H]-cAMP as substrate at 10 uM after 30 mins by two-step radiometric assay
Binary call on inhibition: Fulfilled from 30% upward, Not fulfilled beneath that.

{"line-notation": "Cc1cnc2c(-c3ccc(Oc4ncccc4-c4ccncc4)cc3)cn(C)c2c1", "group-label": "Not fulfilled"}

Q. Please indicate if the recorded inhibition for "Cn1cc(-c2ccc(Oc3ncccc3-c3ccncc3)cc2)c2ncc(Cl)cc21" meets or exceeds 30%.
A. Not fulfilled

Q. Please indicate if the recorded inhibition for "Cn1cc(-c2ccc(Oc3nccnc3-c3cncnc3)cc2)c2nc3ccccc3cc21" meets or exceeds 30%.
A. Not fulfilled

Q. Please indicate if the recorded inhibition for "Cn1cc(-c2cccc(Oc3nccc(N4CCOCC4)n3)c2)c2nc3ccccc3cc21" meets or exceeds 30%.
A. Not fulfilled

Q. Please indicate if the recorded inhibition for "Cn1cc(-c2ccc(Oc3ncccc3-c3ccncc3)cc2)c2ncccc21" meets or exceeds 30%.
A. Fulfilled

Q. Please indicate if the recorded inhibition for "Cn1cc(-c2cccc(Oc3nccc(-c4cn[nH]c4)n3)c2)c2nc3ccccc3cc21" meets or exceeds 30%.
A. Not fulfilled

Q. Please indicate if the recorded inhibition for "Cn1cc(-c2ccc(Oc3nccnc3-c3ccncc3)cc2)c2ncccc21" meets or exceeds 30%.
A. Fulfilled

Q. Please indicate if the recorded inhibition for "Cn1cc(-c2ccc(Oc3nccnc3-c3ccncc3)cc2)c2ncc(Cl)cc21" meets or exceeds 30%.
A. Fulfilled

Q. Please indicate if the recorded inhibition for "Cn1cc(-c2cccc(Oc3nccc(-c4cncnc4)n3)c2)c2nc3ccccc3cc21" meets or exceeds 30%.
A. Not fulfilled

Q. Please indicate if the recorded inhibition for "Cn1cc(-c2ccc(Oc3nccnc3-c3ccncc3)cc2)c2nc3ccccc3cc21" meets or exceeds 30%.
A. Not fulfilled
